Consider the following molecules and their measured MIC readings.
# Tested on: Mannheimia haemolytica MH 10720 (154, BRD field isolate)
# Experiment notes: MIC, broth-microdilution (CLSI VET01-A4)
# Format: cell-based
# Condition details: Mannheimia haemolytica MH 10720; read-out: MIC MH 10720
Numeric answer only, unit µM assumed.

These solved cases illustrate the format of a correct answer.
CC(C)(N)C(NC(=O)c1ccc(C#Cc2ccc(CNC3CC3)cc2)cc1)C(=O)NO (stereo not shown)
0.4
C[C@@H](O)[C@H](NC(=O)c1ccc(C#Cc2ccc(CNCc3ccccn3)cc2)cc1)C(=O)NO
0.2
CSC(C)(C)[C@H](NC(=O)c1ccc(C#Cc2ccc(CNCc3ccnc(Cl)c3)cc2)cc1)C(=O)NO
0.4
COc1ccc(CNCc2ccc(C#Cc3ccc(C(=O)NC(C(=O)NO)C(C)(C)SC)cc3)cc2)cc1 (stereo not shown)
0.4
CC(C)(N)C(NC(=O)c1ccc(C#Cc2ccc(CNCc3ccco3)nc2)cc1)C(=O)NO (racemic)
0.2

Query :: Checklist item: MIC tested on Mannheimia haemolytica MH 10720 (154, BRD field isolate), entry CSC(C)(C)C(NC(=O)c1ccc(C#Cc2ccc(CNCc3ccccc3)cc2)cc1)C(=O)NO (stereo not shown) , value?
Result :: 0.2

Query :: // fetch Mannheimia haemolytica MH 10720 (154, BRD field isolate) MIC for Cc1ccc(CNCc2ccc(C#Cc3ccc(C(=O)NC(C(=O)NO)C(C)(C)N)cc3)s2)cc1 (stereo not shown)
Result :: 0.2

The reported numbers originate from patent US20230000813A1.
